Biological target: T1, TNFR1 (Homo sapiens, UniProt P19438)
T1 chain: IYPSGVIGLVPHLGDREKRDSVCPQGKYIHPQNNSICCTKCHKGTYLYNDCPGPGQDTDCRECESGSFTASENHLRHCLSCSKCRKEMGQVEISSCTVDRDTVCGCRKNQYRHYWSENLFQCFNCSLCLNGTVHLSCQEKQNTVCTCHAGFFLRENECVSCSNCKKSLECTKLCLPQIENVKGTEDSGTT
Assay: yeast display SC50
measuredAttribute: apparent Kd (screen) (nM)

Example results:
V85S (designed binder) MTLQELLREEALRRAEAEAFRYALELLAEKFPEQKEYLLDLAEEIESQIRSLSGVDVEDVRKFLDKEWAWVKELLAEHPAELAESEAARAARLAELRAEVEAKVAA
0.869
E29M (designed binder) MTLQELLREEALRRAEAEAFRYALELLAMKFPEQKEYLLDLAEEIESQIRSLSGVDVEDVRKFLDKEWAWVKELLAEHPAELAEVEAARAARLAELRAEVEAKVAA
0.539
E77H (designed binder) MTLQELLREEALRRAEAEAFRYALELLAEKFPEQKEYLLDLAEEIESQIRSLSGVDVEDVRKFLDKEWAWVKELLAHHPAELAEVEAARAARLAELRAEVEAKVAA
0.653

(I) A28H (designed binder) MTLQELLREEALRRAEAEAFRYALELLHEKFPEQKEYLLDLAEEIESQIRSLSGVDVEDVRKFLDKEWAWVKELLAEHPAELAEVEAARAARLAELRAEVEAKVAA
(II) A15S (designed binder) MTLQELLREEALRRSEAEAFRYALELLAEKFPEQKEYLLDLAEEIESQIRSLSGVDVEDVRKFLDKEWAWVKELLAEHPAELAEVEAARAARLAELRAEVEAKVAA
(III) V55R (designed binder) MTLQELLREEALRRAEAEAFRYALELLAEKFPEQKEYLLDLAEEIESQIRSLSGRDVEDVRKFLDKEWAWVKELLAEHPAELAEVEAARAARLAELRAEVEAKVAA
(IV) L38D (designed binder) MTLQELLREEALRRAEAEAFRYALELLAEKFPEQKEYDLDLAEEIESQIRSLSGVDVEDVRKFLDKEWAWVKELLAEHPAELAEVEAARAARLAELRAEVEAKVAA
-- ask Descending sort on apparent Kd (screen) required. Answer format: list of labels, ordered as asked.
-- reply IV, I, III, II
(IV: 11.4 nM, I: 7.78 nM, III: 2.48 nM, II: 0.539 nM)
